Reference for the values: ChEMBL document CHEMBL1152769

test-details: Inhibition of bovine spleen adenosine deaminase type 9 by spectrophotometry
Parameters: species or system Bos taurus
pKi: −log10 of the molar value.
reported-property: pKi

Examples with their reported pKi follow.
molecule	measurement
CN(C)c1ccc(NC(=O)Nc2ccc(Cn3cc4c(=O)[nH]cnc4n3)cc2)cc1	8.70
O=C(Nc1ccc(Cc2ccccc2)cc1)Nc1ccc(Cn2cc3c(=O)[nH]cnc3n2)cc1	6.73
O=C(Nc1ccc(F)cc1)Nc1ccc(Cn2cc3c(=O)[nH]cnc3n2)cc1	8.94
COc1ccc(NC(=O)Nc2ccc(Cn3cc4c(=O)[nH]cnc4n3)cc2)cc1	7.55
O=C(Nc1ccc(Cn2cc3c(=O)[nH]cnc3n2)cc1)c1ccc(F)cc1	9.02
CCCCCC[C@H]([C@H](C)O)n1cnc2c(N)ncnc21 [(+)-EHNA]	8.94

[A] O=C(Nc1ccccc1)Nc1ccc(Cn2cc3c(=O)[nH]cnc3n2)cc1
[B] O=C(NCc1ccccc1)Nc1ccc(Cn2cc3c(=O)[nH]cnc3n2)cc1
[C] COc1ccc(C(=O)Nc2ccc(Cn3cc4c(=O)[nH]cnc4n3)cc2)cc1
Problem: Task field, ranking: reported pKi, descending order. Give the order by naming the labels one after another as requested.
Solution: A, C, B
(A: 8.62, C: 7.81, B: 7.07)

---

test-details: Inhibition of bovine spleen adenosine deaminase type 9 by spectrophotometry
Set-up: species or system Bos taurus
pKi: −log10 of the molar value.
reported-property: pKi

These recorded examples may help you get a feel for the data.
compound-string	reported-property	measurement
O=C(Nc1ccc(Cn2cc3c(=O)[nH]cnc3n2)cc1)c1ccccc1	pKi	7.90
O=C(Nc1ccc(Cn2cc3c(=O)[nH]cnc3n2)cc1)Nc1ccc(C(F)(F)F)cc1	pKi	9.80
O=C(Nc1ccc(Cn2cc3c(=O)[nH]cnc3n2)cc1)Nc1ccc(OCc2ccccc2)cc1	pKi	6.97

[A] O=C(Nc1ccc(Cn2cc3c(=O)[nH]cnc3n2)cc1)c1ccc(C(F)(F)F)cc1
[B] O=C(Cc1ccccc1)Nc1ccc(Cn2cc3c(=O)[nH]cnc3n2)cc1
Problem: Compare pKi: is it lower for A or for B ? Refer to your chosen item by its label in the answer.
Solution: B
(B: 7.32, A: 9.29)
